Target: human glucagon receptor (human) (UniProt P47871)
Sequence (P47871 26-477): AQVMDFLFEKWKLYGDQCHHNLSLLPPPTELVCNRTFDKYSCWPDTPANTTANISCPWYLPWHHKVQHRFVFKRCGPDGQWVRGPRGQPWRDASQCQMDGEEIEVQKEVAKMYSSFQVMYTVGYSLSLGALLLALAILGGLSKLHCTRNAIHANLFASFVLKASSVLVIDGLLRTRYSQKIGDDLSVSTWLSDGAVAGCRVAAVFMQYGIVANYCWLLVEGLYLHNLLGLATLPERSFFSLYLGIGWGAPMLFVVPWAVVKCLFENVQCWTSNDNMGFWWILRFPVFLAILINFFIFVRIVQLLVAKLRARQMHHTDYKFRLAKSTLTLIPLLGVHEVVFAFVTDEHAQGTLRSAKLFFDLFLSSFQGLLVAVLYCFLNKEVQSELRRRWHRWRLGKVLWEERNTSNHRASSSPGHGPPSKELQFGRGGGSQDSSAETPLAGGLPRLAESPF
Test: cell-based or functional assay
# binning rule on cAMP Rel EC50, nM (1% HSA): b0 = under 400 nM, b1 = from 400 nM up to 900 nM, b2 = 900 nM and over

Consider the following illustrative entries.
Binder	Discrete label
YXQGTFTSDFSXXLDKKAQXAFIEYLLEGGXSSGAPPPGGS (acylated; synthetic construct; SITE 2: note = 2-Aminoisobutyric Acid; SITE 12: note = L-ornithine; SITE 13: note = alpha-methyl-leucine; SITE 17: note = Lysine is chemically modified through conjugation of the epsilon-amino group of the Lysine side chain with (2-[2-(2-Amino-ethoxy)-ethoxy]-acetyl)-(gamma-Glu)) [Example 234]	b1
YXQGTFTSDFSXXLDKKAQXAFIEYLLEGGPSSGAPPPEGT (synthetic construct; SITE 2: note = 2-Aminoisobutyric Acid; SITE 12: note = L-ornithine; SITE 13: note = alpha-methyl-leucine; SITE 17: note = Lysine is chemically modified through conjugation of the epsilon-amino group of the Lysine side chain with (2-[2-(2-Amino-ethoxy)-ethoxy]-acetyl)-(gamma-Glu)) [Example 160]	b1
YXQGTFTSDXSQXLDXKAQXQFIEYLIAGGPSSGAPPPSGSEE (non-natural residues; Lys acylated C18 diacid via γGlu2; C-term amide; synthetic construct; SITE 2: note = 2-Aminoisobutyric Acid; SITE 10: note = 3-(4-Pyridyl)-L-alanine; SITE 13: note = alpha-methyl-leucine; SITE 16: note = L-ornithine; SITE 17: note = Lysine is chemically modified through conjugation of the epsilon-amino group of the Lysine side chain with (gamma-Gl)) [Example 1005]	b2
YXQGTXTSDXSILLDKKAQXAFIEYLLEGGPSSGAPPPS (synthetic construct; SITE 2: note = 2-Aminoisobutyric Acid; SITE 6: note = alpha-methyl-L-phenylalanine; SITE 10: note = 3-(4-Pyridyl)-L-alanine; SITE 17: note = Lysine is chemically modified through conjugation of the epsilon-amino group of the Lysine side chain with (2-[2-(2-Amino-ethoxy)-ethoxy]-) [Example 418]	b1
YXQGTFTSDFSXXLDKKAQXAFIEYLLEGGPSSGAXPPGGS (acylated; synthetic construct; SITE 2: note = 2-Aminoisobutyric Acid; SITE 12: note = L-ornithine; SITE 13: note = alpha-methyl-leucine; SITE 17: note = Lysine is chemically modified through conjugation of the epsilon-amino group of the Lysine side chain with (2-[2-(2-Amino-ethoxy)-ethoxy]-acetyl)-(gamma-Glu)) [Example 235]	b1
YXQGTXTSDXXIXLDXKAQXXFIEXLSEGGPSSGEPPPE (synthetic construct; SITE 2: note = 2-Aminoisobutyric Acid; SITE 6: note = alpha-methyl-2-fluoro-L-phenylalanine; SITE 10: note = 3-(4-Pyridyl)-L-alanine; SITE 11: note = alpha-methyl-L-serine; SITE 13: note = alpha-methyl-leucine; SITE 16: note = L-ornithine; SITE 17: note = Lysine is chemically mo) [Example 438]	b1
YXQGTFTSDFSXXLDKKAQXAFIEYLLAGGPSSGEPPPEGS (synthetic construct; SITE 2: note = 2-Aminoisobutyric Acid; SITE 12: note = L-ornithine; SITE 13: note = alpha-methyl-leucine; SITE 17: note = Lysine is chemically modified through conjugation of the epsilon-amino group of the Lysine side chain with (2-[2-(2-Amino-ethoxy)-ethoxy]-acetyl)-(gamma-Glu)) [Example 152]	b2
YXQGTXTSDYXILLDKKAQXAFIEYLEEGGPSSGAPPPS (synthetic construct; SITE 2: note = 2-Aminoisobutyric Acid; SITE 6: note = alpha-methyl-L-phenylalanine; SITE 11: note = alpha-methyl-L-serine; SITE 17: note = Lysine is chemically modified through conjugation of the epsilon-amino group of the Lysine side chain with (2-[2-(2-Amino-ethoxy)-ethoxy]-ac)) [Example 393]	b0
YXQGTXTSDYSILLDKKAQXAFIEYLEEGGPSSGAPPPS (synthetic construct; SITE 2: note = 2-Aminoisobutyric Acid; SITE 6: note = alpha-methyl-L-phenylalanine; SITE 17: note = Lysine is chemically modified through conjugation of the epsilon-amino group of the Lysine side chain with (2-[2-(2-Amino-ethoxy)-ethoxy]-acetyl)-(gamma-Glu)-CO-(CH2) 16-CO2H; SIT) [Example 392]	b1
YXQGTFTSDXSXXLDXKAQXEFIEXLLAGGPSSGAPPPSGSEE (acylated lysine (γ-Glu)2 C18 diacid; non-natural residues; C-terminal amide; synthetic construct; SITE 2: note = 2-Aminoisobutyric Acid; SITE 10: note = 3-(4-Pyridyl)-L-alanine; SITE 12: note = L-ornithine; SITE 13: note = alpha-methyl-leucine; SITE 16: note = L-ornithine; SITE 17: note = Lysine is chemically modified through conjugation of the epsilon-amino group of the Lys) [Example 996]	b2

[Q] Entry YXQGTFTSDXSXXLDKKAQXAFIEYLIAGGPSSGEPPPSGTEEE (Aib, 4Pal, Orn, Me4Pal; lipidated Lys; C-terminal amide; synthetic construct; SITE 2: note = 2-Aminoisobutyric Acid; SITE 10: note = 3-(4-Pyridyl)-L-alanine; SITE 12: note = L-ornithine; SITE 13: note = alpha-methyl-leucine; SITE 17: note = Lysine is chemically modified through conjugation of the epsilon-amino group of the Lysine side chain with (gamma-Gl)) [Example 982] belongs to which category?
[A] b0

[Q] Band of YXQGTFTSDXSXXLDKKAQXAFIEXLIEGGPSSGAPPPSGSEE (Aib, 4Pal, Me4Pal, Orn, alpha-methyl-Leu, lipidated Lys, amide; synthetic construct; SITE 2: note = 2-Aminoisobutyric Acid; SITE 10: note = 3-(4-Pyridyl)-L-alanine; SITE 12: note = L-ornithine; SITE 13: note = alpha-methyl-leucine; SITE 17: note = Lysine is chemically modified through conjugation of the epsilon-amino group of the Lysine side chain with (2-[2-(2-) [Example 955] ?
[A] b0
